TARGET DESC: HSV-1 helicase-primase (Human herpesvirus 1, UniProt P10189+P10236)
Construct: made in house; host or cells: Sf21 insect cells triply infected with recombinant baculoviruses (UL5, UL8, UL52)
Sequence (P10192 whole entry): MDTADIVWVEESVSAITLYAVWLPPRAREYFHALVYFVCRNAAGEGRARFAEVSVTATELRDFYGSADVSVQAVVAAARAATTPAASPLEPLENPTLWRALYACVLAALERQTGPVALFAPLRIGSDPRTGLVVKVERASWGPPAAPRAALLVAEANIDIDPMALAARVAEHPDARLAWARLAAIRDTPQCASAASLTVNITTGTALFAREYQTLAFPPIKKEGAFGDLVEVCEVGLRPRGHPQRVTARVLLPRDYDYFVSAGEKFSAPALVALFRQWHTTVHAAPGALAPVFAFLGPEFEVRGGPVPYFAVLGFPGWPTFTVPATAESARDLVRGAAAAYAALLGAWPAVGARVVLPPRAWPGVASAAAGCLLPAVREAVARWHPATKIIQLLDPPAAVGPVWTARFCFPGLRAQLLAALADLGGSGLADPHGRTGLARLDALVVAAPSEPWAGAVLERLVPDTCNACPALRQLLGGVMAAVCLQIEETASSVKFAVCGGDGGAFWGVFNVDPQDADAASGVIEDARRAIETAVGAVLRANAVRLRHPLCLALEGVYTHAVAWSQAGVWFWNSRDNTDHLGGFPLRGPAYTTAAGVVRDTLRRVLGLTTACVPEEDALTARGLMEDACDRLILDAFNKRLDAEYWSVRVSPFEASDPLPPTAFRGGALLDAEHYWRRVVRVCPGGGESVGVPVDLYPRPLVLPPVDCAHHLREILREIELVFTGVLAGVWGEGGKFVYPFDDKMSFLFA
Sequence (P10236 whole entry): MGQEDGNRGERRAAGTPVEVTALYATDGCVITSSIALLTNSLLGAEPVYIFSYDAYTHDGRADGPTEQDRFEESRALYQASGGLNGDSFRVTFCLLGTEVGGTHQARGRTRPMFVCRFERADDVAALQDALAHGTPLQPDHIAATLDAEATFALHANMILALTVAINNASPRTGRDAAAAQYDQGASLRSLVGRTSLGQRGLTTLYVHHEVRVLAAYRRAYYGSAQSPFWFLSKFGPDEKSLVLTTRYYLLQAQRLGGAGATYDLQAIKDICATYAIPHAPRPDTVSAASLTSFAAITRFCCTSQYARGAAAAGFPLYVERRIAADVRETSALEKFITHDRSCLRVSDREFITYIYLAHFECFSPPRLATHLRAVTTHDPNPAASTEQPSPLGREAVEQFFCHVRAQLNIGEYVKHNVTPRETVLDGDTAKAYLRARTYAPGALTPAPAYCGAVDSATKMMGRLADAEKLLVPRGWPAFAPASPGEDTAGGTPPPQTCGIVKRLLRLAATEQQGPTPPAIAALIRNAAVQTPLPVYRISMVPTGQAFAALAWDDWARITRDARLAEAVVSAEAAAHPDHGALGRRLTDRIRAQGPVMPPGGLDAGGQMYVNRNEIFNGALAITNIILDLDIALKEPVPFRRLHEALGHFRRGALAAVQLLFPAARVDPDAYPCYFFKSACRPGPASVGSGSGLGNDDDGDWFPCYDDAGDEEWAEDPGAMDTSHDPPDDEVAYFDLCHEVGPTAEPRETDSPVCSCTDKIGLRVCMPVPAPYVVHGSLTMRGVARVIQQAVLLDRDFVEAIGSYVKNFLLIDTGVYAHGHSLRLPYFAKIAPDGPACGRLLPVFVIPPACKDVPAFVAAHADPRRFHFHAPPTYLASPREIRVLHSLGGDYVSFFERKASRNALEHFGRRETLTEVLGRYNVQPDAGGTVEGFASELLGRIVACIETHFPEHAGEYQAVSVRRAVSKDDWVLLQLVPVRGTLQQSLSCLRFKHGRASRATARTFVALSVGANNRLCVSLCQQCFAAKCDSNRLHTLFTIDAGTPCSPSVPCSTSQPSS
Sequence (P10189 whole entry): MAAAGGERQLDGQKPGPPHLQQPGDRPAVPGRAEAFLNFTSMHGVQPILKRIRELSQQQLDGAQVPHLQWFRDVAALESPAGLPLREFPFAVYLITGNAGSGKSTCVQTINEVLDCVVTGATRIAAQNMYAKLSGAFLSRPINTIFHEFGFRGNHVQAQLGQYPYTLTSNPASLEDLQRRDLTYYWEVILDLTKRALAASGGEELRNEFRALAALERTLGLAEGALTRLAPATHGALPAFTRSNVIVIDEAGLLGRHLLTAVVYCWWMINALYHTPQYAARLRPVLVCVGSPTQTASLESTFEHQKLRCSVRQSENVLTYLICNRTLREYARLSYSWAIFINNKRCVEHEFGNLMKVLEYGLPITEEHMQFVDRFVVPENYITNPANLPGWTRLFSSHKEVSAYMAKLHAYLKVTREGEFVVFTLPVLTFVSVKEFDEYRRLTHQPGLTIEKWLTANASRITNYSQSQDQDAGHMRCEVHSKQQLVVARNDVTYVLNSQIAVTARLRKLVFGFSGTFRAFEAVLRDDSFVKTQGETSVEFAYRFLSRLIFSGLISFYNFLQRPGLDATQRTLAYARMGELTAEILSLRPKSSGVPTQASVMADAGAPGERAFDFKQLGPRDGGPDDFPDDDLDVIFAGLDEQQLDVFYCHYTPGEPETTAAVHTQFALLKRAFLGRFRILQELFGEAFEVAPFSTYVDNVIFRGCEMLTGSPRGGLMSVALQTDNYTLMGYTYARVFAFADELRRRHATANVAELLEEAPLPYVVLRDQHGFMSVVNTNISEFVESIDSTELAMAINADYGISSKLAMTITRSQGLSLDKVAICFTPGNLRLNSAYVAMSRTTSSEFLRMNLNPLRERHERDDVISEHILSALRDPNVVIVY
ASSAY: HSV-1 DNA-dependent ATPase assay (inhibition of HSV-1 helicase-primase)
Format: biochemical
APPLIED CONDITIONS: Group 1 Table 1 entries
METRIC NAME: IC50 (nM)
Answers are plain numbers, in nM.

Observe how each entry below is paired with its result.
| SMILES ENTRY | UNIT ABBREVIATION | IC50 |
| --- | --- | --- |
| Nc1nc(-c2ccc(NC(=O)CN(Cc3ccccc3)C(=O)c3cnccn3)cc2)cs1 | nM | 1100 |
| C[C@H](c1ccccc1)N(CC(=O)Nc1ccc(-c2csc(N)n2)cc1)C(=O)OC(C)(C)C | nM | 2400 |
| COc1ccccc1CN(CC(=O)Nc1ccc(-c2csc(N)n2)cc1)C(=O)c1ccncc1 | nM | 380 |
| Nc1nc(-c2ccc(NC(=O)CN(CC3CCCCC3)C(=O)c3ccccc3)cc2)cs1 | nM | 1500 |

List reported IC50 for each of these compounds:
1. [N-]=[N+]=Nc1ccc(C(=O)N(CC(=O)Nc2ccc(-c3csc(N)n3)cc2)Cc2ccccc2)cc1
2. Cc1nc(C)c(C(=O)N(CC(=O)Nc2ccc(-c3csc(N)n3)cc2)Cc2ccccc2)s1
3. CC(C)(C)C(=O)N(CC(=O)Nc1ccc(-c2csc(N)n2)cc1)Cc1ccccc1
4. CN(CC(=O)Nc1ccc(-c2csc(N)n2)cc1)Cc1ccccc1
5. Nc1nc(-c2ccc(NC(=O)CN(Cc3ccc(Cl)cc3)C(=O)C3CCCCC3)cc2)cs1
6. Nc1nc(-c2ccc(NC(=O)CN(Cc3ccccc3)C(=O)C3CCCC3)cc2)cs1
7. Nc1nc(-c2ccc(NC(=O)CN(Cc3ccc(Cl)c(I)c3)C(=O)c3ccncc3)cc2)cs1
8. Nc1nc(-c2ccc(NC(=O)CN(CCc3ccccc3)C(=O)C3CCCC3)cc2)cs1

[280, 950, 800, 3300, 50, 41, 570, 400]

List reported IC50 for each of these compounds:
1. Cc1nc(CN(CC(=O)Nc2ccc(-c3csc(N)n3)cc2)C(=O)c2ccncc2)cs1
2. Nc1nc(-c2ccc(NC(=O)CN(Cc3ccccn3)C(=O)C3CCCCC3)cc2)cs1

2500
72

* * *

Consider the following compounds; for each one, report its pIC50.
TARGET DESC: HSV-1 helicase-primase (Human herpesvirus 1, UniProt P10189+P10236)
Construct: made in house; host or cells: Sf21 insect cells triply infected with recombinant baculoviruses (UL5, UL8, UL52)
ASSAY: HSV-1 DNA-dependent ATPase assay (inhibition of HSV-1 helicase-primase)
Format: biochemical
APPLIED CONDITIONS: Group 1 Table 1 entries
One number for each entry, as −log10 of the molar value.

| COMPOUND | RECORDED RESULT |
| --- | --- |
| Nc1nc(-c2ccc(NC(=O)CN(Cc3ccccc3Cl)C(=O)c3ccncc3)cc2)cs1 [Example 145] | 6.41 |
| COc1cccc(CN(CC(=O)Nc2ccc(-c3csc(N)n3)cc2)C(=O)c2ccncc2)c1 [Example 149] | 6.35 |

Request body: readout pIC50, system HSV-1 helicase-primase (Human herpesvirus 1, UniProt P10189+P10236), query CC(=O)N(CC(=O)Nc1ccc(-c2csc(N)n2)cc1)Cc1ccccc1 [Example 44] . Return the value.
5.48

* * *

TARGET DESC: HSV-1 helicase-primase (Human herpesvirus 1, UniProt P10189+P10236)
Construct: made in house; host or cells: Sf21 insect cells triply infected with recombinant baculoviruses (UL5, UL8, UL52)
ASSAY: HSV-1 DNA-dependent ATPase assay (inhibition of HSV-1 helicase-primase)
Type: biochemical
APPLIED CONDITIONS: Group 1 Table 3 entries
METRIC NAME: IC50

Observe how each entry below is paired with its result.
| COMPOUND | TARGET DESC | RECORDED RESULT |
| --- | --- | --- |
| CC(=O)Nc1nc(-c2ccc(NC(=O)CN(Cc3ccccc3)C(C)=O)cc2)cs1 [Example 18] | HSV-1 helicase-primase (Human herpesvirus 1, UniProt P10189+P10236) | > 100 µM |
| CN(C)c1nc(-c2ccc(NC(=O)CN(Cc3ccccc3)C(=O)c3ccncc3)cc2)cs1 [Example 14] | HSV-1 helicase-primase (Human herpesvirus 1, UniProt P10189+P10236) | > 50 µM |
| CC(C)c1nc(-c2ccc(NC(=O)CN(Cc3ccccc3)C(=O)c3ccccc3)cc2)cs1 [Example 20] | HSV-1 helicase-primase (Human herpesvirus 1, UniProt P10189+P10236) | > 50 µM |
| CN(C)c1nc(-c2ccc(NC(=O)CN(Cc3ccccc3)C(=O)OC(C)(C)C)cc2)cs1 [Example 16] | HSV-1 helicase-primase (Human herpesvirus 1, UniProt P10189+P10236) | > 50 µM |
| CN(C)c1nc(-c2ccc(NC(=O)CNCC3CCCCC3)cc2)cs1 [Example 13] | HSV-1 helicase-primase (Human herpesvirus 1, UniProt P10189+P10236) | > 50 µM |

Could you now consider this next compound?
Which IC50 value is on record for CN(C)c1nc(-c2ccc(NC(=O)CN(CC3CCCCC3)C(=O)OC(C)(C)C)cc2)cs1 [Example 17] ?
> 50 µM

* * *

Tested on: HCMV (strain AD169)
ASSAY: Inhibition of HCMV replication, plaque reduction assay (PRA, Hs-68 cells)
Type: cell-based, Human Cytomegalovirus (HCMV)
APPLIED CONDITIONS: Human betaherpesvirus 5, AD169, Hs68, Group 1 Table 2 entries, read-out: PRA CMV EC50
Consider the following compounds; for each one, report its EC50.

Observe how each entry below is paired with its result.
| COMPOUND | EC50 |
| --- | --- |
| Nc1nc(-c2ccc(NC(=O)CCN(Cc3ccccc3)CC3CCCCC3)cc2)cs1 | > 5 µM |
| Nc1nc(-c2ccc(NC(=O)CCNCc3cccc(F)c3)cc2)cs1 | > 3.7 µM |
| CCCC(CCC)NCCC(=O)Nc1ccc(-c2csc(N)n2)cc1 | > 9 µM |

Request body: readout EC50, system HCMV (strain AD169), query Nc1nc(-c2ccc(NC(=O)CCNC3CCc4ccccc43)cc2)cs1 (stereo not shown) . Return the value.
> 10.4 µM

* * *

Consider the following molecules; for each one, report its EC50.
Tested on: HCMV (strain AD169)
ASSAY: Inhibition of HCMV replication, ELISA assay (Hs-68 cells)
Assay type: cell-based, Human Cytomegalovirus (HCMV)
APPLIED CONDITIONS: Human betaherpesvirus 5, AD169, Hs68, Group 1 Table 2 entries, read-out: ELISA CMV EC50
Numbers only, in µM.

| MOLECULE | EC50 [µM] |
| --- | --- |
| Nc1nc(-c2ccc(NC(=O)CCN(C(=O)c3cccnc3)C3Cc4ccccc4C3)cc2)cs1 | 6.5 |
| Nc1nc(-c2ccc(NC(=O)CCN(Cc3ccccc3)C(=O)C3CCCCC3)cc2)cs1 | 8.6 |
| Nc1nc(-c2ccc(NC(=O)CCNC3Cc4ccccc4C3)cc2)cs1 | 7.5 |
| CC(C)(C)OC(=O)N(CCC(=O)Nc1ccc(-c2csc(N)n2)cc1)C1CCc2ccccc21 (stereo not shown) | 37 |
| Nc1nc(-c2ccc(NC(=O)CCN(Cc3ccccc3)Cc3ccccc3)cc2)cs1 | 0.55 |
| C[C@H](NCCC(=O)Nc1ccc(-c2csc(N)n2)cc1)c1ccccc1 | 0.8 |
| C[C@@H](c1ccccc1)N(C)CCC(=O)Nc1ccc(-c2csc(N)n2)cc1 | 18 |
| C[C@@H](NCCC(=O)Nc1ccc(-c2csc(N)n2)cc1)c1ccccc1 | 1 |

List reported EC50 for each of these molecules:
1. Nc1nc(-c2ccc(NC(=O)CCN(Cc3ccccc3)C(=O)OCc3ccccc3)cc2)cs1
2. CC(C)(C)OC(=O)N(CCC(=O)Nc1ccc(-c2csc(N)n2)cc1)C1Cc2ccccc2C1

[7, 0.2]

* * *

TARGET DESC: HSV-1 helicase-primase (Human herpesvirus 1, UniProt P10189+P10236)
Construct: made in house; host or cells: Sf21 insect cells triply infected with recombinant baculoviruses (UL5, UL8, UL52)
ASSAY: HSV-1 DNA-dependent ATPase assay (inhibition of HSV-1 helicase-primase)
Assay type: biochemical
APPLIED CONDITIONS: Group 1 Table 5 entries
METRIC NAME: IC50 (nM)
One number for each entry, in nM.

| MOLECULE | IC50 (nM) |
| --- | --- |
| Nc1nc(-c2ccc(NC(=O)[C@H](Cc3ccccc3)NC(=O)OCc3ccccc3)cc2)cs1 [Example 23] | 600 |

List reported IC50 for each of these molecules:
1. CC(C)(C)OC(=O)N[C@@H](CC1CCCCC1)C(=O)Nc1ccc(-c2csc(N)n2)cc1 [Example 24]
2. Nc1nc(-c2ccc(NC(=O)[C@H](Cc3ccccc3)NS(=O)(=O)N3CCOCC3)cc2)cs1 [Example 25]

[17, 170]
